Target: T1, CD25 (R&D systems cat. #223-2A/CF) (UniProt P01589 22-213, limits assumed)
T1 construct: Bought soluble protein
T1 sequence (looked up): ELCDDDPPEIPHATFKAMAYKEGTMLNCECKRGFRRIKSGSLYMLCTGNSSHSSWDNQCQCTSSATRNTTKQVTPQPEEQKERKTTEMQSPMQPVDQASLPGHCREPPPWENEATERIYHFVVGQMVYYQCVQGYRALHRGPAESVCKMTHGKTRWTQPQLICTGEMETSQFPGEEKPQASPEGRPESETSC
Experiment: Biacore (SPR); antibody captured on Protein A, CD25 injected
QUANTITY MEASURED: kon (M⁻¹ s⁻¹)

[[record]]
binder = "anti-CD25 H1.22L1.48 (antibody, V domains shown) VH: QVQLVQSGAEVKKPGASVKVSCKASGYTFTSYRMHWVRQAPGQGLEWMGWINPNSGGTNYAQKFQGRVTITRDTSISTAYMELSRLRSDDTAVYYCARGGGVFDYWGQGTLVTVSS VL: EIVLTQSPATLSLSPGERATLSCRASQSVSYMHWYQQKPGQAPRLLIYTTSNRATGIPARFSGSGSGTDFTLTISSLEPEDFAVYYCHQRSTYPLTFGSGTKLEIK"
value = 780000

[[record]]
binder = "anti-CD25 H1L1.48 (antibody, V domains shown, also called VL combination variant L1.48 paired with H1) VH: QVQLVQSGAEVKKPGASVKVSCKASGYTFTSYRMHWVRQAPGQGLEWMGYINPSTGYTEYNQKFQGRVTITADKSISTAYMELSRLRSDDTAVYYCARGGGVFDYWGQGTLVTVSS VL: EIVLTQSPATLSLSPGERATLSCRASQSVSYMHWYQQKPGQAPRLLIYTTSNRATGIPARFSGSGSGTDFTLTISSLEPEDFAVYYCHQRSTYPLTFGSGTKLEIK"
value = 500000

[[record]]
binder = "anti-CD25 H1.22L1.43 (antibody, V domains shown) VH: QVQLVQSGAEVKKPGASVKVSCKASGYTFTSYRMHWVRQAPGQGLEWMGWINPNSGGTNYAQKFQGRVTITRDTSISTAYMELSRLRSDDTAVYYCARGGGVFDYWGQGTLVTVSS VL: EIVLTQSPATLSLSPGERATLSCRASQSVSYLHWYQQKPGQAPRLLIYTTSNRATGIPARFSGSGSGTDYTLTISSLQPEDFAVYYCHQRSTYPLTFGSGTKLEIK"
value = 640000

